- Tested on: Human alphaherpesvirus 2
- run-description: Minimum inhibitory concentration causing 25% inhibition of cytopathic effect induced by Herpes simplex virus(HSV) -2 (thymidine kinase deficient) in HEp-2 cells
- Type: functional
Mark met only when MIC stays strictly below 200 µM. Values equal to the cut-off are not met.

> print(dat)
                                   molecule                       tgt  class.name
1  O=C(O)CP(=O)(O)OC[C@H]1O[C@@H](n2cc(CCCl)c(=O)[nH]c2=O)C[C@@H]1O  Human alphaherpesvirus 2     not met

Please indicate whether the reported MIC of O=C(CP(=O)(O)O)OC[C@H]1O[C@@H](n2cc(CCCl)c(=O)[nH]c2=O)C[C@@H]1O is strictly below 200 µM.
not met

Please indicate whether the reported MIC of O=C(OCc1ccccc1)P(=O)(O)OC[C@H]1O[C@@H](n2cc(CCCl)c(=O)[nH]c2=O)C[C@@H]1O is strictly below 200 µM.
not met

Please indicate whether the reported MIC of CCOC(=O)CP(=O)(OC)OC[C@H]1O[C@@H](n2cc(I)c(=O)[nH]c2=O)C[C@@H]1O (some centres not stated) is strictly below 200 µM.
met

* * *

- Tested on: Human alphaherpesvirus 1
- run-description: Cumulative mortality in percent of HSV-1 infected mice, after peroral administration of 1 mg/kg of compound
- Format: functional
- details: route oral
Assign class by CMP: not lower than 80 means True; lower than 80 means False.

For this compound, is measured CMP 80 or higher? CCOC(=O)P(=O)(O)OC[C@H]1O[C@@H](n2cc(CCCl)c(=O)[nH]c2=O)C[C@@H]1O
True

For this compound, is measured CMP 80 or higher? O=C(O)CP(=O)(O)OC[C@H]1O[C@@H](n2cc(CCCl)c(=O)[nH]c2=O)C[C@@H]1O
True

For this compound, is measured CMP 80 or higher? CCOC(=O)CP(=O)(O)OC[C@H]1O[C@@H](n2cc(CCCl)c(=O)[nH]c2=O)C[C@@H]1O
True

For this compound, is measured CMP 80 or higher? CCOC(=O)CP(=O)(OC)OC[C@H]1O[C@@H](n2cc(CCCl)c(=O)[nH]c2=O)C[C@@H]1O (some centres not stated)
True

For this compound, is measured CMP 80 or higher? CC(C)(C)OC(=O)CP(=O)(O)OC[C@H]1O[C@@H](n2cc(CCCl)c(=O)[nH]c2=O)C[C@@H]1O
True

For this compound, is measured CMP 80 or higher? COP(=O)(CC(=O)OC[C@H]1O[C@@H](n2cc(CCCl)c(=O)[nH]c2=O)C[C@@H]1O)OC
False

For this compound, is measured CMP 80 or higher? CCOC(=O)P(=O)(OC)OC[C@H]1O[C@@H](n2cc(CCCl)c(=O)[nH]c2=O)C[C@@H]1O (some centres not stated)
False

For this compound, is measured CMP 80 or higher? O=C(OCc1ccccc1)P(=O)(O)OC[C@H]1O[C@@H](n2cc(CCCl)c(=O)[nH]c2=O)C[C@@H]1O
False

For this compound, is measured CMP 80 or higher? CCOC(=O)P(=O)(Nc1ccccc1)OC[C@H]1O[C@@H](n2cc(CCCl)c(=O)[nH]c2=O)C[C@@H]1O (some centres not stated)
True

* * *

- Tested on: Mus musculus
- run-description: Mean duration of lesions in HSV-1 infected mice, after administration of 0.1 % of compound intracutaneously
- Type: functional
result-type: MDL (days)
Numbers only, in days.

> print(dat)
                                   molecule           tgt  value.measured
1  O=C(OCc1ccccc1)P(=O)(O)OC[C@H]1O[C@@H](n2cc(CCCl)c(=O)[nH]c2=O)C[C@@H]1O  Mus musculus             8.1
2  CCOC(=O)CP(=O)(OC)OC[C@H]1O[C@@H](n2cc(CCCl)c(=O)[nH]c2=O)C[C@@H]1O (some centres undefined)  Mus musculus            10.6
3  O=c1[nH]c(=O)n([C@H]2C[C@H](O)[C@@H](CO)O2)cc1CCCl  Mus musculus             2.4

// field: MDL; key: CCOC(=O)P(=O)(O)OC[C@H]1O[C@@H](n2cc(CCCl)c(=O)[nH]c2=O)C[C@@H]1O ; value = 6.7

* * *

- Test system: Human alphaherpesvirus 1
- run-description: Cumulative mortality in percent of HSV-1 infected mice, after peroral administration of 10 mg/kg of compound
- Assay type: functional
- details: route oral
Assign class by CMP: not lower than 30 means criterion met; lower than 30 means criterion not met.

Use these answered entries as a reference point.
> print(dat)
                                   molecule                       tgt     class.name
1  O=C(O)CP(=O)(O)OC[C@H]1O[C@@H](n2cc(CCCl)c(=O)[nH]c2=O)C[C@@H]1O  Human alphaherpesvirus 1  criterion met
2  CCOC(=O)CP(=O)(O)OC[C@H]1O[C@@H](n2cc(CCCl)c(=O)[nH]c2=O)C[C@@H]1O  Human alphaherpesvirus 1  criterion met
3  CC(C)(C)OC(=O)CP(=O)(O)OC[C@H]1O[C@@H](n2cc(CCCl)c(=O)[nH]c2=O)C[C@@H]1O  Human alphaherpesvirus 1  criterion met
4  O=C(OCc1ccccc1)P(=O)(O)OC[C@H]1O[C@@H](n2cc(CCCl)c(=O)[nH]c2=O)C[C@@H]1O  Human alphaherpesvirus 1  criterion met

Switching to the query record.
For this molecule, is measured CMP 30 or higher? CCOC(=O)P(=O)(OC)OC[C@H]1O[C@@H](n2cc(CCCl)c(=O)[nH]c2=O)C[C@@H]1O (stereo not given in full)
criterion not met

* * *

For each record, write down the corresponding MIC.
- Test system: Human alphaherpesvirus 2
- run-description: Minimum inhibitory concentration causing 25% inhibition of cytopathic effect induced by Herpes simplex virus(HSV) -2 (thymidine kinase deficient) in HEp-2 cells
- Assay type: functional

> print(dat)
                                   compound  result.type  value.measured
1  COP(=O)(CC(=O)OC[C@H]1O[C@@H](n2cc(CCCl)c(=O)[nH]c2=O)C[C@@H]1O)OC          MIC        > 227 µM

Provide reported MIC for each item, in the same order as listed.
1. CCOC(=O)P(=O)(O)OC[C@H]1O[C@@H](n2cc(CCCl)c(=O)[nH]c2=O)C[C@@H]1O
2. CCOC(=O)P(=O)(Nc1ccccc1)OC[C@H]1O[C@@H](n2cc(CCCl)c(=O)[nH]c2=O)C[C@@H]1O (stereo partly drawn)
3. CCOC(=O)CP(=O)(OC)OC[C@H]1O[C@@H](n2cc(CCCl)c(=O)[nH]c2=O)C[C@@H]1O (stereo partly drawn)
4. Nc1nc2c(ncn2COCCO)c(=O)[nH]1 [ACYCLOVIR]
5. COP(=O)(CC(=O)O[C@H]1C[C@H](n2cc(CCCl)c(=O)[nH]c2=O)O[C@@H]1CO)OC

["> 234 µM", "> 199 µM", "> 220 µM", "440 µM", "> 227 µM"]

Provide reported MIC for each item, in the same order as listed.
1. CCOC(=O)P(=O)(OC)OC[C@H]1O[C@@H](n2cc(I)c(=O)[nH]c2=O)C[C@@H]1O (stereo partly drawn)
2. O=C(O)CP(=O)(O)O [FOSFONET]
3. O=c1[nH]c(=O)n([C@H]2C[C@H](O)[C@@H](CO)O2)cc1I [IDOXURIDINE]
4. O=C(CP(=O)(O)O)O[C@H]1C[C@H](n2cc(CCCl)c(=O)[nH]c2=O)O[C@@H]1CO
5. CCOC(=O)P(=O)(OC)OC[C@H]1O[C@@H](n2cc(CCCl)c(=O)[nH]c2=O)C[C@@H]1O (stereo partly drawn)
6. COC(=O)P(=O)(O)OC[C@H]1O[C@@H](n2cc(CCCl)c(=O)[nH]c2=O)C[C@@H]1O
7. O=c1[nH]c(=O)n([C@H]2C[C@H](O)[C@@H](CO)O2)cc1CCCl

5.9 µM
214 µM
8.4 µM
> 242 µM
> 227 µM
> 242 µM
> 342 µM

* * *

- Test system: Human alphaherpesvirus 1
- run-description: Cumulative mortality in percent of HSV-1 infected mice, after peroral administration of 1 mg/kg of compound
- Format: functional
- details: route oral
For each record, write down the corresponding CMP.
Numbers only.

Would you please look over these solved cases?
> print(dat)
                              line.notation                       tgt  result.type  value.measured
1  COC(=O)P(=O)(O)OC[C@H]1O[C@@H](n2cc(CCCl)c(=O)[nH]c2=O)C[C@@H]1O  Human alphaherpesvirus 1          CMP              75
2  O=C(CP(=O)(O)O)OC[C@H]1O[C@@H](n2cc(CCCl)c(=O)[nH]c2=O)C[C@@H]1O  Human alphaherpesvirus 1          CMP              67

Consider now this further compound.
// field: CMP; key: CCOC(=O)P(=O)(O)O[C@H]1C[C@H](n2cc(CCCl)c(=O)[nH]c2=O)O[C@@H]1CO ; value = 83
